Cited source for all entries: patent US20250186600A1

- Test system: omalizumab
- Measurement protocol: DLS viscosity of concentrated omalizumab (Example 53)
- Type: physicochemical
- Condition description: concentrated omalizumab 9 parts : 1 part excipient stock (1 M or solubility limit), 20 mM HisHCl pH 6
Classify by measured DLS Viscosity, Replicate 2: fulfilled if it is equal to or exceeds 20 cP, not fulfilled if it is smaller.

Problem: Item CCCCCCn1ccnc1 [Excipient 1-hexylimidazole, 1-hexylimidazole] with DLS Viscosity, Replicate 2 of 20 cP or above?
Result: not fulfilled

Problem: Can you check CCCCCCCCOP(=O)([O-])OCC[N+](C)(C)C [O-(octylphosphoryl)choline] next?
Result: fulfilled

Problem: Can you check OC(CCN1CCCCC1)(c1ccccc1)c1ccccc1 [Pridinol Methanesulfonate] next?
Result: fulfilled

Problem: Can you check CCCCn1ccnc1 [Excipient 1-butylimidazole, 1-butylimidazole] next?
Result: not fulfilled

Problem: Can you check O=S(=O)(O)CCN1CCN(CCO)CC1 [HEPES] next?
Result: not fulfilled
